# tested.target: Herceptin Fab with a kappa light chain and binding specificity for Her2/neu (from the monoclonal antibody trastuzumab)
# assay.text: BLI (ForteBio), biotinylated ligand on sensor, 1:1 fit
readout.kind: Kd (µM)
Report as a plain number; the unit µM is understood.

Please review the following examples before continuing.
{"binder": "affinity ligand SEQ ID NO: 89 (designed binder, biotinylated (AviTag system)) MGGGGSAAAGDEAQHWENQGAAYAARGDYDRAIEYYGRALELDPNNAWAWWELGVAYAARGDYDRAIEYYERALELDPDDATTWSRLGHAYAARGDYDRAIEYYERALELDPEDETARYLLEHARRARQGQAGQGGGSGLNDIFEAQKIEWHECHHHHHH", "Kd (µM)": 0.041}
{"binder": "affinity ligand SEQ ID NO: 81 (designed binder, biotinylated (AviTag system)) MGGGGSAAAGDEAERWYDLGAAYAARGDYDRAIEYYQRALELDPNNAWAWWELGVAYAARGDYDRAIEYYQRALELDPNNAVAWRRLGIAYAARGDYDRAIEYYQRALELDPNNEVARDALEYARRARRGQAGQGGGSGLNDIFEAQKIEWHECHHHHHH", "Kd (µM)": 0.031}
{"binder": "affinity ligand SEQ ID NO: 88 (designed binder, biotinylated (AviTag system)) MGGGGSAAAGDEAQCWENQGAAYAARGDYDRAIEYYERALELDPNNAWAWWELGVAYAARGDYDRAIEYYERALELDPDDATAWSRLGHAYAARGDYDRAIEYYERALELDPEDETARYLLEHARRARQGQAGQGGGSGLNDIFEAQKIEWHECHHHHHH", "Kd (µM)": 0.032}
{"binder": "affinity ligand SEQ ID NO: 90 (designed binder, biotinylated (AviTag system)) MGGGGSAAAGDEAQCWENQGAAYAARGDYDRAIEYYERALELDPNNAWAWWELGVAYAARGDYDRAIEYYERALELDPDDATTWSRLGHAYAARGDYDRAIEYYVRALELDPEDETARYLLEHARRARQGQAGQGGGSGLNDIFEAQKIEWHECHHHHHH", "Kd (µM)": 0.051}
{"binder": "affinity ligand SEQ ID NO: 91 (designed binder, biotinylated (AviTag system)) MGGGGSAAAGDEAQRWENQGAAYAARGDYDRAIEYYGRALELDPNNAWAWWELGVAYAARGDYDRAIEYYERALELDPDDATAWSRLGHAYAARGDYDRAIEYYERALELDPENETARYLLEHARRARQGQAGQGGGSGLNDIFEAQKIEWHECHHHHHH", "Kd (µM)": 0.046}
{"binder": "affinity ligand SEQ ID NO: 85 (designed binder, biotinylated (AviTag system)) MGGGGSAAAGDEAERWDYLGAAYAARGDYDRAIEYYQRALELDPNNAWAWWDLGLAYAARGDYDRAIEYYQRALELDPNNAVAWFRLGWAYAARGDYDRAIEYYQRALELDPNNELARSELENARRARRGQAGQGGGSGLNDIFEAQKIEWHECHHHHHH", "Kd (µM)": 0.053}

Request the reported Kd associated with affinity ligand SEQ ID NO: 82 (designed binder, biotinylated (AviTag system)) MGGGGSAAAGDEAGRWYDLGAAYAARGDYDRAIEYYQRALELDPNNAWAWWELGVAYAARGDYDRAIEYYQRALELDPNNAVAWARLGIAYAARGDYDRAIEYYQRALELDPNNEVARDALEYARRARRGQAGQGGGSGLNDIFEAQKIEWHECHHHHHH 0.023

Request the reported Kd associated with affinity ligand SEQ ID NO: 86 (designed binder, biotinylated (AviTag system)) MGGGGSAAAGDEAQRWENQGAAYAARGDYDRAIECYESALELDPNNAWAWWELGVAYAARGDYDRAIEYYERALELDPDDAIAWSRLGHAYAARGDYDRAIEYYERALELDPEDETARYLLEHARRARQGQAGQGGGSGLNDIFEAQKIEWHECHHHHHH 0.028

Request the reported Kd associated with affinity ligand SEQ ID NO: 94 (designed binder, biotinylated (AviTag system)) MGGGGSAAAGDEAVRWEIQGAAYAARGDYDRAIEYYERALELDPNNAWAWWELGVAYAARGDYDRAIEYYERALELDPDDAHVWFRLGWAYAVRGDYDRAIEYYERALELDPEDELARRILEDARRARQGQAGQGGGSGLNDIFEAQKIEWHECHHHHHH 0.014

Request the reported Kd associated with affinity ligand SEQ ID NO: 80 (designed binder, biotinylated (AviTag system)) MGGGGSAAAGDEADRWAALGAAYAARGDYDRAIEYYQRALELDPNNAWAWWDLGVAYAARGDYDRAIEYYERALELDPDDAHAWFRLGWAYAARGDYDRAIEYYERALELDPEDETARDVLEGARRARQGQAGQGGGSGLNDIFEAQKIEWHECHHHHHH 0.007
